Data origin: paper PMC12040169

# methodDescription: in vitro
# settings: human, hela cells, % viability
propertyLabel: viability at 28.5 h, 10 µM (%)
Give bare numbers, in %.

The examples below pair each entry with its known result.
{"columns": ["compound", "units", "viability at 28.5 h, 10 µM"],
 "data": [
  ["CC(C)[C@H](CO)Nc1nccnc1-c1ccc(C(=O)N2CCOCC2)cc1 [CBK037012]", "%", 97.7],
  ["CCCCOc1ccc(Sc2nc(C)cc(C)n2)cc1 [CBK009219]", "%", 92.1],
  ["Cc1cc(C(=O)N2CCC(C(=O)NC(c3ccccc3)c3ccc4ccccc4n3)CC2)no1 (stereo not drawn) [CBK059641]", "%", 100],
  ["CSCC1CCCN(C(=O)c2cc3ncc(CCO)cn3n2)C1 (stereo not drawn) [CBK307256]", "%", 79.6],
  ["Cc1csc2ncc(C(=O)Nc3cc(C(F)(F)F)ccc3Cl)c(=O)n12 [CBK287465]", "%", 94.4]
]}

// batch mode: one viability at 28.5 h, 10 µM value per listed entry
1. COc1ccc(Nc2ccc(-c3ccsc3)cn2)c(C)c1 [CBK036855]
2. C[C@@H]1CN(Cc2ccco2)[C@H](C)CN1CC(=O)Nc1nc2c(s1)CCCC2 [CBK286530]

[A]
1. 109
2. 100

Please give viability at 28.5 h, 10 µM for each item listed below.
1. CC(C)N(C(=O)Cn1cccc2cc(C(F)F)nc1-2)C(C)C [CBK285012]
2. CNC(=O)C1(Cc2ccc(-c3ccccc3)cc2)CCN(C(=O)c2ccccc2)CC1 [CBK285761]

[A]
1. 85.5
2. 96.5

* * *

# methodDescription: in vitro
# settings: human, hela cells, % viability
Give viability at 28.5 h, 10 µM for every item shown.

Examples from the recorded data:
{"columns": ["compound", "viability at 28.5 h, 10 µM"],
 "data": [
  ["CS(=O)(=O)Nc1ccc(-c2cccc(C(F)(F)F)c2)c2ccccc12", "95.4%"],
  ["CN(Cc1ccc2c(c1)OCCO2)C(=O)CSc1n[nH]c(=O)n1Cc1ccccc1", "82.1%"],
  ["Cc1cc(=O)[nH]c(CCNc2cc([C@H]3C[C@@H](N)C3)nc(C3CC3)n2)n1", "103%"],
  ["CCCn1c(=O)c(Cc2ccccc2)c(O)c2ccccc21", "89.3%"],
  ["O=C(O)c1ccccc1C(=O)N1CCN(c2ccc([N+](=O)[O-])cc2)CC1", "87.7%"]
]}

I'm hoping you can list viability at 28.5 h, 10 µM for every compound here, please.
1. O=C(O)c1ccc(N(Cc2ccccc2)S(=O)(=O)c2ccccc2)cc1 [CBK265375N]
2. COc1ccc([C@H]2CN(C(=O)c3ccccn3)[C@@H]3CCCN(C(C)=O)[C@H]23)cc1

[A]
92.8%
91.4%

Hey, can you go through the list below and give me viability at 28.5 h, 10 µM for every item?
1. COc1cc2cc(C(=O)N3CCN(Cc4ccc5c(c4)OCO5)CC3)c(=O)oc2cc1OC
2. O=C(O)c1ccccc1NS(=O)(=O)c1cccc2cccnc12

[A]
1. 102%
2. 56.7%

* * *

# methodDescription: in vitro
# settings: human, hela cells, % viability
propertyLabel: viability at 28.5 h, 10 µM (%)
Give bare numbers, in %.

Completed entries (count: 3):
{"columns": ["compound", "units", "viability at 28.5 h, 10 µM"],
 "data": [
  ["Nc1nonc1N/N=C/c1ccccc1F", "%", 68.4],
  ["O=C(CCCn1ccnc1)Nc1ccc(OC2CCCC2)cc1", "%", 92.3],
  ["Cc1nc2c(c(=O)[nH]1)CCN(Cc1c(C)oc3ccccc13)C2", "%", 87.8]
]}

Items follow; give viability at 28.5 h, 10 µM for each.
1. O=C(NCCNc1ccc([N+](=O)[O-])cc1Cl)c1ccc(F)cc1
2. S=c1[nH]nc(Cn2ccc(-c3ccccc3)n2)o1
3. COc1cccc(Cc2cccc(C3CCN(C(=O)Cc4c[nH]c5ccccc45)CC3)n2)c1
4. CN(C)C1Cc2cccc3nc(S(C)(=O)=O)n(c23)C1 (stereo not shown)

[A]
1. 86.6
2. 108
3. 93.1
4. 94.8

// each listed compound needs a value for viability at 28.5 h, 10 µM
1. COc1ccc(-c2cnc(N)c(NCc3cccnc3)n2)c(OC)c1OC
2. COc1cc(CNc2ccccc2Cl)ccc1OCC(=O)O
3. O=C(COc1ccccc1)NC(=S)Nc1cccc(-c2nc3ccccc3s2)c1

[A]
99
89.7
107

* * *

Field: viability at 28.5 h, 1 µM. Provide a value for each of the molecules that follow.
# methodDescription: in vitro
# Parameters: Viability of infected HeLa host cells, resazurin conversion, bulk resorufin fluorescence relative to DMSO
# settings: human, hela cells; bulk resorufin, mean of 2
Numbers only, in %.

In the examples that follow, each entry is paired with its recorded viability at 28.5 h, 1 µM.
{"columns": ["molecule", "viability at 28.5 h, 1 µM [%]"],
 "data": [
  ["O=C(N/N=C\\c1ccc([N+](=O)[O-])o1)c1nc(-c2ccccc2)cc(-c2ccccc2)n1 [CBK261958]", 90],
  ["CCC1C(c2ccc(C)cc2)=CCC(C(=O)NCCCN(C)C)C1C (stereo not drawn) [CBK016514]", 104]
]}

Batch request: viability at 28.5 h, 1 µM for each of the following molecules.
1. COc1cc(N)c2ncccc2c1 [CBK011972C]
2. N#Cc1c(Nc2cccc(C(F)(F)F)c2)sc(C(=O)c2ccc3c(c2)OCO3)c1N [CBK074399]
3. CN1CCN(c2ccc3ccn(S(=O)(=O)c4ccc([N+](=O)[O-])cc4)c3n2)CC1 [CBK070757C]
4. Cc1cc(C(=O)Nc2cccc(S(=O)(=O)N3CCOCC3)c2)sc1-c1ccccc1 [CBK268185]
5. O=C(Nc1cccc2c(NC(=O)N3CCCCC3)cccc12)N1CCCCC1 [CBK010775]

[A]
1. 101
2. 87.7
3. 89.6
4. 106
5. 89.2

// input: 2 molecules below; output: viability at 28.5 h, 1 µM for each
1. Cc1ccc(Cn2c(=N)n(CC(=O)c3cc(C(C)(C)C)c(O)c(C(C)(C)C)c3)c3ccccc32)cc1 [CBK262458B]
2. CCN(CC)CCNc1nc(-c2cccc(Cl)c2)nc2ccccc12 [CBK267265C]

[A]
[92.1, 104]

* * *

# methodDescription: in vitro
# settings: human, hela cells, % viability
Lab note - cut at 90% for viability at 28.5 h, 10 µM: class 1 if strictly below, class 0 if not.

{"columns": ["molecule", "assignedLabel"],
 "data": [
  ["Cc1cc(NC(=O)C(=O)NC(C)c2ccccc2)ccc1Br (centres unmarked)", "class 0"]
]}

[Q] Please indicate whether the reported viability at 28.5 h, 10 µM of NC(=O)C1CCN(C(=O)CSc2nc3ccccc3o2)CC1 is strictly below 90%.
[A] class 0

[Q] What do we get for CCc1ccc(CCC(=O)N2CCN(S(=O)(=O)c3sc(C(=O)O)c(C)c3C(=O)O)CC2)cc1 ?
[A] class 0

* * *

# methodDescription: in vitro
# settings: human, hela cells, % viability
Hi there, I'd appreciate the recorded viability at 28.5 h, 10 µM for every entry that follows.
Give bare numbers, in %.

Reference set (10 entries):
{"columns": ["compound", "measuredValue"],
 "data": [
  ["CC(C)C(=O)N1CCC2(C/C=C/C[C@H]3COCC[C@H]3NC(=O)CNC2=O)CC1", 95.8],
  ["Cc1nn(C)cc1-c1cncn1CCN(C)C1CCCC1", 95.8],
  ["O=C(O)c1cccc(-c2nccnc2NCC2CC2)c1", 95.5],
  ["CN(C)CCN(C)c1cncc(-c2ccc3ccccc3c2)n1", 77.7],
  ["C1=CC2N=C(SCc3ccccc3)OC2C=C1 (centres unmarked)", 92.6],
  ["CC1CCN(S(=O)(=O)c2ccc(C(=O)O)cc2)CC1", 82.7],
  ["Cc1nc(-c2ccccc2)sc1CNC(=O)CCC(F)(F)F", 102],
  ["COc1ccc(C(=O)NC(CC(=O)O)c2ccc(OC)cc2)cc1 (centres unmarked)", 101],
  ["O=C(O)c1ccc(CN(c2ccccc2)S(=O)(=O)c2ccccc2)cc1", 93.3],
  ["c1csc(-c2cc3cccnc3n2CCN2CCOCC2)c1", 80.5]
]}

For the 3 compounds below, give their viability at 28.5 h, 10 µM values.
1. COc1ccc(CCNC(=S)NN2CCN(C)CC2)cc1OC
2. Cc1cc2oc(=O)cc(COC(=O)c3ccc(-n4cccn4)cc3)c2cc1Cl
3. CCN(CC)C(=O)COc1ccc(NC(=O)Nc2cc(C)on2)cc1Cl

[A]
[93.2, 93.9, 104]
